Values from patent US20030021776

Target: T1, MX1E (synthetic)
T1 chain: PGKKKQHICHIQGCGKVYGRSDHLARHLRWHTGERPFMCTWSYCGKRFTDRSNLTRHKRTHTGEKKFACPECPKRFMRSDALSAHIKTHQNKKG
Experiment: EMSA
Conditions: tags: MBP fusion (pMal-c2), SP1 backbone
propertyName: Kd (nM)
Supply the numeric figure in nM, leaving out any unit text.

Ask | Please look up its Kd: BVO 13A / MX1E target (dsDNA) DNA 1: ATGGACGGG DNA 2: CCCGTCCAT
Reply | 3.4
